- System: PmTbr T-box DNA-binding domain (GST fusion);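 note: 200 nM protein in PBS on universal arrays averaged over duplicate arrays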
- Sequence: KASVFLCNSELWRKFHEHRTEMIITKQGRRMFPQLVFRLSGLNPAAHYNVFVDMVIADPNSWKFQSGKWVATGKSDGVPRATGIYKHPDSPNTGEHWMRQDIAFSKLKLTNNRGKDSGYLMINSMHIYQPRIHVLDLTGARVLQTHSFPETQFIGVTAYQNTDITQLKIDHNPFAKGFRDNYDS
- run-description: PBM E-score of 8-mer (E-score (dimensionless, -0.5 to 0.5)); higher = stronger binding preference
- measurement-setup: the construct has about 5 more residues each side
In all, about 33,000 sequences were measured (“E-score (dimensionless, -0.5 to 0.5)”: median about -0.049, highest 2% from about 0.37 on). The sample holds the highest values, similar sequences and a random draw of the others, so the mix is not that of the screen.
Response field class: enum, chosen by comparing PBM E-score of 8-mer against group 1 (below -0.03), group 2 (-0.03 to below 0.1), group 3 (0.1 or more)

>  <sequence-text>
ATCCATTG

>  <cat>
group 1

$$$$
>  <sequence-text>
CTGAAACC

>  <cat>
group 1

$$$$
>  <sequence-text>
TGAGGGAA

>  <cat>
group 1

$$$$
>  <sequence-text>
GTCGACGA

>  <cat>
group 3

$$$$
>  <sequence-text>
ACGTGAAC

>  <cat>
group 3

$$$$
>  <sequence-text>
ATCACCAA

>  <cat>
group 3

$$$$
>  <sequence-text>
AGCCCCGC

>  <cat>
group 1

$$$$
>  <sequence-text>
GCGTGAAC

>  <cat>
group 3

$$$$
>  <sequence-text>
AGCAACCT

>  <cat>
group 2

$$$$
>  <sequence-text>
CAGACAGC

>  <cat>
group 2

$$$$
>  <sequence-text>
GCAGACAA

>  <cat>
group 2

$$$$

----------
- System: PmTbr T-box DNA-binding domain (GST fusion);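 note: 200 nM protein in PBS on universal arrays averaged over duplicate arrays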
- Sequence: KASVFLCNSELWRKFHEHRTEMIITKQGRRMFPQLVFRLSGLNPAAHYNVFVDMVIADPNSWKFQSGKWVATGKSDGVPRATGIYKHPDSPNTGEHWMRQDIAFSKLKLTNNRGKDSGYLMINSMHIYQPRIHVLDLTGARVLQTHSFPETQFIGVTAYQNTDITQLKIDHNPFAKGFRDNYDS
- run-description: PBM E-score of 8-mer (E-score (dimensionless, -0.5 to 0.5)); Tbr is Tbrain of the sea star Patiria miniata (Pm) or the sea urchin Strongylocentrotus purpuratus (Sp); higher = stronger binding preference
- measurement-setup: target sequence: T-box / the construct has about 5 more residues each side
Over roughly 33,000 sequences, “E-score (dimensionless, -0.5 to 0.5)” has its median near -0.049; the highest 2% begin near 0.37. The list comes from a sample in which the highest values are over-represented; it also holds close analogues and randomly drawn sequences.
test-readout: PBM E-score of 8-mer

>  <sequence-text>
CAGTGAGA

>  <result>
0.181

$$$$
>  <sequence-text>
ATATACGA

>  <result>
-0.298

$$$$
>  <sequence-text>
AAGACATT

>  <result>
-0.203

$$$$
>  <sequence-text>
GCTCTATA

>  <result>
-0.25

$$$$
>  <sequence-text>
CTTAACAC

>  <result>
0.434

$$$$
>  <sequence-text>
CAAGTGAC

>  <result>
0.325

$$$$
>  <sequence-text>
CGACTTCC

>  <result>
-0.183

$$$$
>  <sequence-text>
AACCTCTG

>  <result>
-0.151

$$$$
>  <sequence-text>
ATATGTGA

>  <result>
0.24

$$$$
>  <sequence-text>
AAGCCAAT

>  <result>
-0.162

$$$$
>  <sequence-text>
CCGCAGGC

>  <result>
0.000335

$$$$
>  <sequence-text>
CACCTCTG

>  <result>
0.417

$$$$
>  <sequence-text>
ATTGCAGC

>  <result>
-0.0944

$$$$
>  <sequence-text>
GGGCCAAA

>  <result>
-0.228

$$$$
>  <sequence-text>
AGTCGATA

>  <result>
0.147

$$$$
>  <sequence-text>
GAGACACA

>  <result>
0.053

$$$$
>  <sequence-text>
GTGACACA

>  <result>
0.416

$$$$
>  <sequence-text>
ACGTGAGA

>  <result>
0.349

$$$$
>  <sequence-text>
AATTCGAC

>  <result>
-0.0254

$$$$
>  <sequence-text>
GTGCGAGA

>  <result>
0.434

$$$$
>  <sequence-text>
AGTCACAG

>  <result>
0.135

$$$$
>  <sequence-text>
ATGACCAT

>  <result>
-0.23

$$$$
>  <sequence-text>
AAAGTGAC

>  <result>
0.392

$$$$
>  <sequence-text>
GACCTCTA

>  <result>
-0.259

$$$$
>  <sequence-text>
GGCTTCAA

>  <result>
-0.121

$$$$
>  <sequence-text>
AACCTCTA

>  <result>
-0.151

$$$$
>  <sequence-text>
AGATACTC

>  <result>
-0.119

$$$$
>  <sequence-text>
CACCTCTC

>  <result>
0.419

$$$$
>  <sequence-text>
AAATGTGT

>  <result>
0.432

$$$$
>  <sequence-text>
AGGTGAGC

>  <result>
0.303

$$$$
>  <sequence-text>
CGAGAACA

>  <result>
0.2

$$$$
>  <sequence-text>
AAATGTGG

>  <result>
0.0797

$$$$
>  <sequence-text>
CTGCGAGA

>  <result>
0.212

$$$$
>  <sequence-text>
TCCATCGA

>  <result>
-0.121

$$$$
>  <sequence-text>
AGAAGGGC

>  <result>
-0.11

$$$$
>  <sequence-text>
ATTATCAG

>  <result>
-0.0355

$$$$
>  <sequence-text>
AGGTGAGA

>  <result>
0.486

$$$$
>  <sequence-text>
GCCAAGCA

>  <result>
-0.0191

$$$$
>  <sequence-text>
ATAGCTAG

>  <result>
-0.0742

$$$$
>  <sequence-text>
AGTCACAT

>  <result>
0.11

$$$$
>  <sequence-text>
ATGTGTGA

>  <result>
0.485

$$$$
>  <sequence-text>
GGTCACAA

>  <result>
0.212

$$$$
>  <sequence-text>
ATTAACAC

>  <result>
0.449

$$$$
>  <sequence-text>
GTGACAAC

>  <result>
0.445

$$$$
>  <sequence-text>
GGCAACAA

>  <result>
0.05

$$$$
>  <sequence-text>
GGCATTAA

>  <result>
-0.146

$$$$
>  <sequence-text>
GCTGGTTA

>  <result>
-0.0863

$$$$
>  <sequence-text>
AGCAACAG

>  <result>
0.0636

$$$$
>  <sequence-text>
CTTAACCC

>  <result>
-0.0938

$$$$
>  <sequence-text>
GGCAACAC

>  <result>
0.38

$$$$
>  <sequence-text>
CGGTGAGA

>  <result>
0.236

$$$$
>  <sequence-text>
AACCTCTC

>  <result>
-0.0958

$$$$
>  <sequence-text>
ATTAACAG

>  <result>
0.143

$$$$
>  <sequence-text>
GCTACAGC

>  <result>
-0.2

$$$$
>  <sequence-text>
AAAGTGAA

>  <result>
-0.00138

$$$$
>  <sequence-text>
CAACCGAG

>  <result>
0.0284

$$$$
>  <sequence-text>
GGACACAC

>  <result>
0.101

$$$$
>  <sequence-text>
ATGCGAGA

>  <result>
0.144

$$$$
>  <sequence-text>
ATTAACAA

>  <result>
0.173

$$$$
>  <sequence-text>
AGTCACCC

>  <result>
-0.0493

$$$$
>  <sequence-text>
CTTGTAGC

>  <result>
0.0941

$$$$
>  <sequence-text>
GTGTTAAC

>  <result>
0.438

$$$$
>  <sequence-text>
GTATCTCA

>  <result>
0.138

$$$$
>  <sequence-text>
GCGCTCCC

>  <result>
-0.133

$$$$
>  <sequence-text>
ATGTCACA

>  <result>
0.375

$$$$
>  <sequence-text>
ATGACAAA

>  <result>
-0.0227

$$$$
>  <sequence-text>
AGAACGAG

>  <result>
-0.0902

$$$$
>  <sequence-text>
GACAATCC

>  <result>
0.106

$$$$
>  <sequence-text>
GTGACGAA

>  <result>
0.371

$$$$
>  <sequence-text>
CGATCCAG

>  <result>
-0.0702

$$$$
>  <sequence-text>
CGTCACCC

>  <result>
0.373

$$$$
>  <sequence-text>
CATCAAAC

>  <result>
-0.0906

$$$$
>  <sequence-text>
AATGACAT

>  <result>
-0.101

$$$$
>  <sequence-text>
AGTATAAT

>  <result>
-0.0999

$$$$
>  <sequence-text>
CAATAGTG

>  <result>
0.127

$$$$
>  <sequence-text>
CGCAACAC

>  <result>
0.356

$$$$
>  <sequence-text>
AGGGGGGC

>  <result>
-0.222

$$$$
>  <sequence-text>
ACCTAGTG

>  <result>
0.223

$$$$
>  <sequence-text>
TAGGTCGA

>  <result>
-0.111

$$$$
>  <sequence-text>
GAAGTGAA

>  <result>
0.219

$$$$
>  <sequence-text>
ATGTTAAC

>  <result>
0.161

$$$$
>  <sequence-text>
CGTGAGAG

>  <result>
0.265

$$$$
>  <sequence-text>
TCCCAGCA

>  <result>
0.0248

$$$$
>  <sequence-text>
ATGTCAAG

>  <result>
-0.0802

$$$$
>  <sequence-text>
CTCATCAC

>  <result>
0.249

$$$$
>  <sequence-text>
ATGTCAGC

>  <result>
0.00315

$$$$
>  <sequence-text>
CACTTTCG

>  <result>
0.258

$$$$
